Taken from PubChem BioAssay (NCI).

System: MDA-MB-231 breast
Assay: NCI tumour cell line growth inhibition, 48 h
measured-parameter: GI50

INSERT INTO results (structure_smiles_string, tested_target, measured_parameter, test_result) VALUES
  ('CN(CCO)C1CCN(c2ccc(Nc3ncc4c5ccnc(F)c5n(C5CCCC5)c4n3)nc2)CC1', 'MDA-MB-231 breast', 'GI50', '6.01 µM'),
  ('COc1ccc(/C=C2\CS(=O)(=O)C/C(=C\c3ccc(OC)cc3)C2=O)cc1', 'MDA-MB-231 breast', 'GI50', '3.01 µM'),
  ('Nc1[nH]c(=O)nc2c1cnn2Cc1ccccc1', 'MDA-MB-231 breast', 'GI50', '> 100 µM');

Next molecule, GI50 to be filled in.
The molecule listed as CCSc1ccc2c(c1)N(CCCN1CCN(C)CC1)c1ccccc1S2 has a reported GI50 of 2 µM
